system: IL-17A-induced G-CSF production in human normal keratinocyte (NHK); experiment: NHK assay: IL-17A-induced G-CSF production in normal human keratinocytes; format: cell-based; conditions: Homo sapiens, Keratinocyte, 24 h, IL-17A 5 ng/mL, average if tested more than once
pIC50: −log10 of the molar value.
quantity-measured: pIC50

Below: 2 compounds and their reported pIC50.
C[C@@H](NC(=O)CCC(F)(F)F)c1ccc2[nH]c([C@@H](NC(=O)c3cnnn3CC3CCC3(F)F)C3CCC(F)(F)CC3)nc2c1 (stereo partly drawn) = < 7.00
CCCC(NC(=O)CCC(F)(F)F)c1ccc2[nH]c([C@@H](NC(=O)c3ccnn3C)C3CCC(F)(F)CC3)nc2c1 (single isomer, unassigned) = < 7.00

# context switch: different compound, same pIC50
Exercise: pIC50 lookup needed for C[C@@H](NC(=O)CCC(F)(F)F)c1ccc2[nH]c([C@@H](NC(=O)c3cnnn3CCC(F)(F)F)C3CCC(F)(F)CC3)nc2c1 , thanks.
Solution: 7.00 to 7.30

###

molecular target: IL-17A : IL-17RA binding (Homo sapiens, UniProt Q16552, K93Q); construct: Name: IL-17A-Flag; test: IL-17A(FLAG-tagged):IL-17RA(His-tagged) binding disruption Eu-HTRF assay, Protocol 1; settings: FLAG-IL-17A 2.5 nM at 2x final concentration; average if tested more than once
Sequence (Q16552 with tags, fused parts or gaps K93Q): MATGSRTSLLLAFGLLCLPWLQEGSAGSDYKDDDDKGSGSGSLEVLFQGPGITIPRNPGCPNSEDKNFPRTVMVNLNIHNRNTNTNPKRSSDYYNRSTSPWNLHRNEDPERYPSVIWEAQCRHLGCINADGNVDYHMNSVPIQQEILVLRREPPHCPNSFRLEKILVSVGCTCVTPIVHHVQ
quantity-measured: IC50

Below: 10 molecules and their reported IC50.
C[C@@H](NC(=O)CCC(F)(F)F)c1ccc2[nH]c([C@@H](NC(=O)c3cnn(CCOC(F)(F)F)n3)C3CCC(F)(F)CC3)nc2c1 = > 0.1 µM
C[C@@H](NC(=O)CCC(F)(F)F)c1ccc2[nH]c([C@@H](NC(=O)c3ccnn3CC(F)(F)F)C3CCC(F)(F)CC3)nc2c1 = > 0.1 µM
Cc1nonc1C(=O)N[C@@H](CC(C)(C)C(F)(F)F)c1nc2ccc([C@H](NC(=O)CC(C)C(F)(F)F)C3CC3)cc2[nH]1 (single isomer, unassigned) [Example 180] = 0.05 to 0.1 µM
Cc1nonc1C(=O)N[C@@H](CC(C)(C)C(F)(F)F)c1nc2cc([C@@H](NC(=O)CCC(F)(F)F)C3CC3)ccc2[nH]1 (relative stereo) = > 0.1 µM
CCC(NC(=O)CCC(F)(F)F)c1ccc2[nH]c([C@@H](NC(=O)c3ccnn3C)C3CCC(F)(F)CC3)nc2c1 (single isomer, unassigned) [Example 53] = > 0.1 µM
CC(C)n1nccc1C(=O)N[C@@H](CC1CC2(C1)CC(F)(F)C2)c1nc2ccc([C@H](NC(=O)CC3CC(F)(F)C3)C3CC3)cc2[nH]1 (some centres unmarked) = > 0.1 µM
[2H]C([2H])([2H])C([2H])([2H])n1nccc1C(=O)N[C@@H](COC(C)(C)C(F)(F)F)c1nc2ccc([C@H](NC(=O)CC3CC(F)(F)C3)C3CC3)cc2[nH]1 = < 0.05 µM
COCC(NC(=O)CC1CC(F)(F)C1)c1ccc2[nH]c([C@H](COC(C)(C)C(F)(F)F)NC(=O)c3nonc3C3CC3)nc2c1 (single isomer, unassigned) = > 0.1 µM
C[C@@H](NC(=O)CCC(F)(F)F)c1ccc2[nH]c([C@@H](NC(=O)c3cn(CC(F)(F)F)nn3)C3CCC(F)(F)CC3)nc2c1 = > 0.1 µM
Cc1nonc1C(=O)N[C@H](c1nc2ccc([C@H](NC(=O)CC3CC(F)(F)C3)C3CC3)cc2[nH]1)[C@H]1C[C@@H]2[C@H](C1)C2(F)F = < 0.05 µM

# context switch: different molecule, same IC50
Exercise: Missing value: IC50, IL-17A : IL-17RA binding (Homo sapiens, UniProt Q16552, K93Q), entry O=C(CC1CC(F)(F)C1)N[C@@H](c1ccc2[nH]c([C@@H](NC(=O)c3nonc3C3CC3)[C@H]3[C@@H]4CC(F)(F)C[C@@H]43)nc2c1)C1CC1 . Fill in?
Solution: < 0.05 µM
